tested on: Human immunodeficiency virus 1; assay: Antiviral activity against HIV-1 harboring RT E138K mutant infected in human MT4 cells assessed as protection against virus-induced cytopathic effect incubated for 5 days by MTT assay; assay type: functional, organism-based; conditions: Human immunodeficiency virus 1, MT4, 120 h
Consider the cut-off 50 nM. If the recorded EC50 is strictly smaller, the label is MET; if not, the label is NOT MET.

Sample answers from the record:
| Mol Smiles | Label Value |
| --- | --- |
| CCOC(=O)c1cnc(NC2CCN(Cc3ccc(F)cc3)CC2)nc1Oc1c(C)cc(-c2ccc(C#N)cc2)cc1C | NOT MET |
| CCOC(=O)c1cnc(NC2CCN(Cc3ccc(S(C)(=O)=O)cc3)CC2)nc1Oc1c(C)cc(-c2ccc(C#N)cc2)cc1C | NOT MET |
| CCOC(=O)c1cnc(NC2CCN(Cc3ccccn3)CC2)nc1Oc1c(C)cc(-c2ccc(C#N)cc2)cc1C | NOT MET |
| O=C1Nc2ccc(Cl)cc2[C@@](C#CC2CC2)(C(F)(F)F)O1 | MET |
| Cc1cn([C@H]2C[C@H](N=[N+]=[N-])[C@@H](CO)O2)c(=O)[nH]c1=O | MET |

Prompt: Is EC50 of CCOC(=O)c1cnc(NC2CCN(Cc3cccnc3)CC2)nc1Oc1c(C)cc(-c2ccc(C#N)cc2)cc1C strictly below 50 nM?
Response: NOT MET

Prompt: Now consider CCOC(=O)c1cnc(NC2CCN(Cc3cccc(C(N)=O)c3)CC2)nc1Oc1c(C)cc(-c2ccc(C#N)cc2)cc1C .
Response: NOT MET

Values from ChEMBL document CHEMBL5608191
